# key: entry, value: pIC50
targetOrSystem: Acetylcholinesterase (Homo sapiens)
Sequence (P22303 whole entry): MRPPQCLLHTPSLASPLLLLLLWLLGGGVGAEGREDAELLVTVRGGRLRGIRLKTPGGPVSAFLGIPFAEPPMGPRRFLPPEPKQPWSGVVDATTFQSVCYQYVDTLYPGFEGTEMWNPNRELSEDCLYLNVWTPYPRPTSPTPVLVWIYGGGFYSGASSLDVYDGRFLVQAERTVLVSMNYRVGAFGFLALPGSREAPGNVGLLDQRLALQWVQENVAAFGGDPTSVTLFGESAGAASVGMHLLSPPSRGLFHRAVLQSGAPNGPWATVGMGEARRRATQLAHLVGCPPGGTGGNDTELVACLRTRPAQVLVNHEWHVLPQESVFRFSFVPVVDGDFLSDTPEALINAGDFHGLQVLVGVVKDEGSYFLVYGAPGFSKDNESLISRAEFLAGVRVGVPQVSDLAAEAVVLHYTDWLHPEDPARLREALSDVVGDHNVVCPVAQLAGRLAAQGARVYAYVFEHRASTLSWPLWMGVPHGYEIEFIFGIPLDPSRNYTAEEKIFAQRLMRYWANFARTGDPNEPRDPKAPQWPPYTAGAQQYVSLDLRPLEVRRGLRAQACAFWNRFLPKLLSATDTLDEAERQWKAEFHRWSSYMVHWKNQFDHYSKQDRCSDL
protocolDetails: Inhibition of human recombinant AChE using acetylthiocholine iodide as substrate preincubated for 20 mins by Ellman's method
Notebook: values listed as pIC50 are -log10 of the concentration (mol/L).

INSERT INTO measurements (smilesstructure, recordedmeasurement) VALUES
  ('CN(Cc1ccccc1)Cc1ccc(C(=O)c2ccc(O)c(F)c2)cc1', 5.44);

[Q] Requested read-out: pIC50. Entry: `O=C(c1ccc(CN2CCC(CCO)CC2)cc1)c1ccc(O)c(F)c1`
[A] 5.63
